# System tested: UniProt:P48736
# Sequence (P48736 whole entry): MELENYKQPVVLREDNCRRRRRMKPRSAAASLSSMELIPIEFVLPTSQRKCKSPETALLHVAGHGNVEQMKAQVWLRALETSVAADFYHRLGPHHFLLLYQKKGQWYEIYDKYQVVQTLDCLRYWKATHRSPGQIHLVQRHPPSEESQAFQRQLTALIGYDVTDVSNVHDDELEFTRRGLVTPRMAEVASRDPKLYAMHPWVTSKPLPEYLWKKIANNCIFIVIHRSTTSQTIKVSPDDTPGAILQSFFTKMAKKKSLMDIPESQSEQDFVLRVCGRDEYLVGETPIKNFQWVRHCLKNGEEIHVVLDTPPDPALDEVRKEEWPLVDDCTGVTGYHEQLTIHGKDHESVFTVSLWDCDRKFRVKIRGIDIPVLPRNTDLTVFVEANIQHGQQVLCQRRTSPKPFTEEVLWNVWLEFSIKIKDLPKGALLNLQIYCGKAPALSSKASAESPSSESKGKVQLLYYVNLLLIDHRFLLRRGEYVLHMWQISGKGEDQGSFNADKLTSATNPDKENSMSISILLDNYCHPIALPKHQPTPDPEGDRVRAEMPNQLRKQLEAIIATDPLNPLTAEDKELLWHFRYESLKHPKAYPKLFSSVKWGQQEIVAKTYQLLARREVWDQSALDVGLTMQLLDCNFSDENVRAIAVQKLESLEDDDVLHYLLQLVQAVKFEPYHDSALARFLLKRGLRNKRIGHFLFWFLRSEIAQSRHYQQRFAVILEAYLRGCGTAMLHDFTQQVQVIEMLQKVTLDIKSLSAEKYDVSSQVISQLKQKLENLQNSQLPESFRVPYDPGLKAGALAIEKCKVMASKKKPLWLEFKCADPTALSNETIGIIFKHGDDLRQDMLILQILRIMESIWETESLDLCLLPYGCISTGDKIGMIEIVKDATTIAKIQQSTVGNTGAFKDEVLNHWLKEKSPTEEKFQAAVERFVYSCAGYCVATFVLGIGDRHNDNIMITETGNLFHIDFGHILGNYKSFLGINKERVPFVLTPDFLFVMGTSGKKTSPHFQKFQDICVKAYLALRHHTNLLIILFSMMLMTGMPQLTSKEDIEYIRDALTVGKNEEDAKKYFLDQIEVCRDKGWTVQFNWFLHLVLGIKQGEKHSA
Assay endpoint: IC50

Some compounds with known IC50 results, for comparison:
Cc1ccn2nc(N)c(C(=O)N[C@@H](C)c3cc4cccc(Cl)c4c(=O)n3-c3ccccc3)c2n1 = 100 to 1000 nM
C[C@H](NC(=O)c1nc(-c2cn[nH]c2)cnc1N)c1cc2cccc(Cl)c2c(=O)n1-c1ccccc1 = 100 to 1000 nM
C[C@H](NC(=O)c1c(N)nn2cccnc12)c1cc2cccc(OC(F)(F)F)c2c(=O)n1-c1ccccc1 = 1000 to 10000 nM
COC(=O)c1ncsc1-c1cccc2cc([C@H](C)NC(=O)c3c(N)nn4cccnc34)n(-c3ccccc3)c(=O)c12 = 1000 to 10000 nM
C[C@H](NC(=O)c1c(N)nn2cccnc12)c1cc2cccc(Cl)c2c(=O)n1CC(O)CO (some centres unmarked) = 100 to 1000 nM
C[C@H](NC(=O)c1c(N)nn2cccnc12)c1cc2cccc(C#CCNC(=O)c3ccc(C#N)o3)c2c(=O)n1-c1ccccc1 = 100 to 1000 nM
C[C@H](NC(=O)c1c(N)nn2cccnc12)c1cc2cccc(NC3CCCCC3)c2c(=O)n1-c1ccccc1 = > 10000 nM
C=CCn1c([C@H](C)NC(=O)c2c(N)nn3cccnc23)cc2cccc(Cl)c2c1=O = 100 to 1000 nM

# lookup: C[C@H](NC(=O)c1nc(-c2cccc(NS(=O)(=O)C3CC3)c2)cnc1N)c1cc2cccc(Cl)c2c(=O)n1-c1ccccc1 on UniProt:P48736, IC50 = < 100 nM

Lab note: compound C[C@H](NC(=O)c1c(N)nn2cccnc12)c1cc2cccc(CN(C)C)c2c(=O)n1-c1ccccc1 tested on UniProt:P48736; recorded IC50 was > 10000 nM

Summary: C[C@H](NC(=O)c1nc(-c2csc(S(C)(=O)=O)n2)cnc1N)c1cc2cccc(Cl)c2c(=O)n1-c1ccccc1 , UniProt:P48736, IC50 = 1000 to 10000 nM

Reported UniProt:P48736 IC50 for item C[C@H](NC(=O)c1c(N)nn2cccnc12)c1cc2cccc(C#CCNC(=O)[C@H]3CCC(=O)O3)c2c(=O)n1-c1ccccc1 was < 100 nM

Considering C[C@H](NC(=O)c1c(N)nn2cccnc12)c1cc2scc(-c3cnn(C)c3)c2c(=O)n1-c1ccccc1 , its IC50 with UniProt:P48736 was recorded as 1000 to 10000 nM

Response field IC50 (UniProt:P48736) for item C[C@H](NC(=O)c1cncc2cccnc12)c1cc2cccc(Cl)c2c(=O)n1-c1ccccc1 : 1000 to 10000 nM

====

pIC50: −log10 of the molar value.
Assay system UniProtKB P42336; read-out recorded as pIC50.
Sequence (P42336 whole entry): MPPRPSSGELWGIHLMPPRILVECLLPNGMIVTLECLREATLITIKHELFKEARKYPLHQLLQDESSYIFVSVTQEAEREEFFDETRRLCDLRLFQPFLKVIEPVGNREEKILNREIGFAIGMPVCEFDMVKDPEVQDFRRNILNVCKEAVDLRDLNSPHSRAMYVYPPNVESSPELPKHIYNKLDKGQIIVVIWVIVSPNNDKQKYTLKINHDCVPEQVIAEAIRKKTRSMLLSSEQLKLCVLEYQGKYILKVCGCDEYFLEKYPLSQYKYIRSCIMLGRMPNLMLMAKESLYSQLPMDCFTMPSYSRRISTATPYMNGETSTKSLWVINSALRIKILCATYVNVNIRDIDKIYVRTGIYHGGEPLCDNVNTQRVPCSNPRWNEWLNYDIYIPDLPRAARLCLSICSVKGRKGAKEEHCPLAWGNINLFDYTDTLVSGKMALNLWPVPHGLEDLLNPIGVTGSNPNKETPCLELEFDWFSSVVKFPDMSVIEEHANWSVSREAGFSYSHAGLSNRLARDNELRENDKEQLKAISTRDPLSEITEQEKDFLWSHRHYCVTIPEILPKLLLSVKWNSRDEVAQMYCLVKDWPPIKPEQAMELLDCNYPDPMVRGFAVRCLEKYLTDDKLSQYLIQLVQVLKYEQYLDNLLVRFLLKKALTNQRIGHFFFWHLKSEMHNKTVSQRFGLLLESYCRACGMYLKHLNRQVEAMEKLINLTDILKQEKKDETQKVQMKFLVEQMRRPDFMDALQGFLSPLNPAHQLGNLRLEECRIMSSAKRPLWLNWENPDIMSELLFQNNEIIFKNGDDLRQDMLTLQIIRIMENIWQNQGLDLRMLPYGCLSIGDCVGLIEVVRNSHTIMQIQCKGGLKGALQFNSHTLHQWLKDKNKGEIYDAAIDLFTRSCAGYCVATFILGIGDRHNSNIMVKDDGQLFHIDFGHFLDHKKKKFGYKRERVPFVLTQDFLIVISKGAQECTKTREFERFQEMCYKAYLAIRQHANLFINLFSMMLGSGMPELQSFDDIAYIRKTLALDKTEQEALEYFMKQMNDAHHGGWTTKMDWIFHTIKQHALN
Sequence (P27986 whole entry partner): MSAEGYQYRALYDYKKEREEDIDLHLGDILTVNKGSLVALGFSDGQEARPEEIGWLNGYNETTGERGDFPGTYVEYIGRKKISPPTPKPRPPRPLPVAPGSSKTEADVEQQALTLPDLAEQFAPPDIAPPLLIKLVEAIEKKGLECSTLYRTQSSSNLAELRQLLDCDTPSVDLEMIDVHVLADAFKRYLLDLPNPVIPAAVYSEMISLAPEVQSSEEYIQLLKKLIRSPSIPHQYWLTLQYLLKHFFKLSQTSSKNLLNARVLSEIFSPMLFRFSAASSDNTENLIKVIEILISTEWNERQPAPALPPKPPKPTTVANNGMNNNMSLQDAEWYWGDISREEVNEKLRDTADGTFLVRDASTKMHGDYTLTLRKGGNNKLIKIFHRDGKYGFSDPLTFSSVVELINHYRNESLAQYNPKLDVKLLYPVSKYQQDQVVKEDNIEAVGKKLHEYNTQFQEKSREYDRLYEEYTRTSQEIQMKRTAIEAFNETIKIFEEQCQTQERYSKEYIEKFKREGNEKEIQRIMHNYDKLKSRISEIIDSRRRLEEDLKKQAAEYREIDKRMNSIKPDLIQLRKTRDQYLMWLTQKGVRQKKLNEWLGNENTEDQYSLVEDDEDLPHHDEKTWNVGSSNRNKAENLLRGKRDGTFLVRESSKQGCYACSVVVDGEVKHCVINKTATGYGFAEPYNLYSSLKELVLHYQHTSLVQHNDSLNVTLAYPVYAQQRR

Here is how some compounds turned out for pIC50.
COc1cc(-c2cccc3cc([C@H](C)NC(=O)c4c(N)nn5cccnc45)n(C4CC4)c(=O)c23)ccn1 [Compound 150] = 5.00 to 6.00
COc1cccc2cc([C@H](C)NC(=O)c3c(N)nn4cccnc34)n(-c3ccccc3)c(=O)c12 [Compound 270] = < 5.00
C[C@H](NC(=O)c1nccnc1N)c1cc2cccc(-c3cccnc3)c2c(=O)n1-c1ccccc1 [Compound 55] = < 5.00
C[C@H](NC(=O)c1nc(-c2cccc(S(N)(=O)=O)c2)cnc1N)c1cc2cccc(Cl)c2c(=O)n1-c1ccccc1 [Compound 108] = 5.00 to 6.00
C[C@H](NC(=O)c1c(N)nn2cccnc12)c1cc2cccc(C(F)(F)F)c2c(=O)n1-c1ccccc1 [Compound 71] = < 5.00
C[C@H](NC(=O)c1c(N)nn2cccnc12)c1cc2cccc(C#CCCNC(=O)[C@H]3CCC(=O)O3)c2c(=O)n1-c1ccccc1 [Compound 161] = 5.00 to 6.00
C[C@H](NC(=O)c1c(N)nn2cccnc12)c1cc2cccc(O)c2c(=O)n1-c1ccccc1 [Compound 132] = < 5.00
C[C@H](NC(=O)c1c(N)nn2cccnc12)c1cc2cccc(F)c2c(=O)n1-c1ccccc1 [Compound 191] = 5.00 to 6.00

// pIC50 value for C#Cc1cccc2cc([C@H](C)NC(=O)c3c(N)nn4cccnc34)n(-c3ccccc3)c(=O)c12 [Compound 276] : 6.00 to 7.00

The reported pIC50 of the compound C[C@H](NC(=O)c1nc(-c2cccc(S(=O)(=O)NC3CC3)c2)cnc1N)c1cc2cccc(Cl)c2c(=O)n1-c1ccccc1 [Compound 96] was < 5.00

pIC50 reading for Cc1cccc2cc([C@H](C)NC(=O)c3c(N)nn4cccnc34)n(-c3ccccc3)c(=O)c12 [Compound 123] : 5.00 to 6.00

So, C[C@H](NC(=O)c1c(N)nn2cccnc12)c1cc2cccc(Cl)c2c(=O)n1-c1cccc(F)c1 [Compound 78] ? Its pIC50 was 5.00 to 6.00
